Data provenance is patent US11566007B2.

So I've got a bunch of molecules here, and I need their pIC50 values.
Molecular target: KRAS G12S (Homo sapiens (Human), UniProt P01116+P62937, G12S)
Sequence (P01116-2 other isoform, or with tags, fused parts or gaps G12S): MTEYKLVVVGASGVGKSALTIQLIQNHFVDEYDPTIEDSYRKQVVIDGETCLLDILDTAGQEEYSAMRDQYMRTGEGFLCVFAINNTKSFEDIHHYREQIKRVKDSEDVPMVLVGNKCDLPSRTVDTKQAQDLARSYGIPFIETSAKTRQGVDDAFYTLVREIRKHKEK
Sequence (P62937 whole entry): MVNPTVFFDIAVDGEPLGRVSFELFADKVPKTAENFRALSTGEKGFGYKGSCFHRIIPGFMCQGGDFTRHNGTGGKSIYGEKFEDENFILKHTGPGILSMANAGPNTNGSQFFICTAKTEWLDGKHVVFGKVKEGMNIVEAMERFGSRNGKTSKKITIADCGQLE
Experiment: Ras-Raf (BRAF RBD) disruption / FRET / MOA assay, KRAS G12S
Assay type: biochemical
Conditions: Ras-Raf disruption/FRET/MOA assay; class symbols; read-out: KRAS G12S FRET data IC50
pIC50: −log10 of the molar value.

Field request: pIC50 | item: C=CC(=O)N1CC[C@]2(COCCN2C(=O)N(C)[C@H](C(=O)N[C@H]2Cc3nc(cs3)-c3ccc4c(c3)c(c(-c3cccnc3[C@H](C)OC)n4CC)CC(C)(C)COC(=O)[C@@H]3CCCN(N3)C2=O)C(C)C)C1 (atropisomer, axis not shown)
5.00 to 6.00

Field request: pIC50 | item: CCn1c(-c2cccnc2[C@H](C)OC)c2c3cc(ccc31)-c1cccc(c1)C[C@H](NC(=O)[C@@H](CO[C@H]1CCN(C(=O)C#CC(C)(C)N(C)C)C1)C(C)C)C(=O)N1CCC[C@H](N1)C(=O)OCC(C)(C)C2 (atropisomer, axis not shown)
5.00 to 6.00

Field request: pIC50 | item: CCn1c(-c2cccnc2[C@H](C)OC)c2c3cc(ccc31)-c1cccc(c1)C[C@H](NC(=O)[C@@H](COC1CN(C(=O)C#CC(C)(C)N(C)CCO)C1)C(C)C)C(=O)N1CCC[C@H](N1)C(=O)OCC(C)(C)C2 (atropisomer, axis not shown)
< 5.00

Field request: pIC50 | item: "C=CC(=O)N1CCC(F)(C(=O)N(C)[C@H](C(=O)N[C@H]2Cc3cc(O)cc(c3)-c3ccc4c(c3)c(c(-c3ccccc3CN(C)C)n4CC)CC(C)(C)COC(=O)[C@@H]3CCCN(N3)C2=O)C(C)C)CC1"
5.00 to 6.00

Field request: pIC50 | item: C=CC(=O)N1CCN(C(=O)N(C)[C@H](C(=O)N[C@H]2Cc3nc(cs3)-c3ccc4c(c3)c(c(-c3cccnc3[C@H](C)OC)n4CC)CC(C)(C)COC(=O)[C@@H]3CCCN(N3)C2=O)C(C)C)[C@@H](C)C1 (atropisomer, axis not shown)
6.00 to 7.00
